# Target: T1, LL-37 (cathelicidin antimicrobial peptide) (UniProt P49913 134-170)
# T1 chain: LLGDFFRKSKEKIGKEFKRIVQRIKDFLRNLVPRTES
# Assay Summary: filter binding; apparent KD from 50% loss of free aptamer; 100 nM RNA; 1 h on ice, 100 nM aptamer, 0-100 uM LL-37; binding buffer not stated; EMSA loading with 60 mM KCl, 10 mM Tris pH 7.6, 40% glycerol; 7% native PAGE in TBE
# Cond: label: 5' 32P
pKd: −log10 of the molar value.
Readout: pKd

get_value(item= GGUCUAGCCGGAGGAGUCAGUAAUCGGUAGACC (XNA, 2'-fluoro C and U) [Apt 21-2] , readout=pKd) returns ~5.70

Cited source: paper PMC6491520
